System: AS120
Experiment: qHTS profiling for inhibitors of Plasmodium falciparum proliferation (AID 504749); further: nearly all actives have a fitted effect of over 60% in size
Details: P. falciparum in erythrocytes, SYBR Green DNA, 72 h; series mostly up to 28.7 µM
Results filed as inconclusive are left out. Active and inactive are the calls of the source. The call rests on the fitted dose curve; in most records, active means well fitted inhibition curve with a large enough effect; inconclusive means small, poorly fitted or top-dose-only effect; inactive means flat fitted curve, though single readings scatter.
Your response should consist of one outcome taken from active, inactive

As a guide, the following entries are already answered.
Answer briefly: the call reported for CCCCCCCCCCCC(=O)N(CCO)CCO in this assay.
inactive

Answer briefly: the call reported for O=S(=O)(O)CC(S)CS (stereo unspecified) in this assay.
inactive

Answer briefly: the call reported for OC[C@H]1O[C@@](CO)(O[C@H]2O[C@H](CO)[C@@H](O)[C@H](O)[C@H]2O)[C@@H](O)[C@@H]1O in this assay.
inactive

New cases:
Answer briefly: the call reported for C[Se]CC[C@H](N)C(=O)O in this assay.
inactive

Answer briefly: the call reported for O=c1[nH]c(=O)n([C@H]2C[C@H](O)[C@@H](CO)O2)cc1/C=C/Br in this assay.
inactive

Answer briefly: the call reported for CN(Cc1ccccc1)Cc1ccccc1 in this assay.
inactive

Answer briefly: the call reported for FC(F)(F)C(F)(F)C(F)(F)C(F)(F)C(F)(F)C(F)(F)F in this assay.
inactive

Answer briefly: the call reported for CC(C)O in this assay.
inactive

Answer briefly: the call reported for CC(=O)Nc1ccc(NC(=S)NC(=O)c2ccc(C(C)(C)C)cc2)cc1 in this assay.
inactive

Answer briefly: the call reported for c1ccc2c(c1)Sc1ccccc1N2CCN1CCCC1 in this assay.
active

Answer briefly: the call reported for CCCCCCCCCCCCCCCCCC(=O)OC[C@@H](O)[C@H]1OC[C@H](O)[C@H]1O in this assay.
inactive

Answer briefly: the call reported for CCCc1ccc(C(=O)O)cc1 in this assay.
inactive

Answer briefly: the call reported for NC(=O)[C@H]1O[C@@H](O)[C@H](O)[C@@H](O)[C@@H]1O in this assay.
inactive

Answer briefly: the call reported for CCc1ncnc2cc(OC)c(OC)cc12 in this assay.
inactive

Answer briefly: the call reported for O=c1n(CC2CO2)c(=O)n(CC2CO2)c(=O)n1CC1CO1 (stereo unspecified) in this assay.
inactive

Answer briefly: the call reported for ClC(Cl)Cl in this assay.
inactive

Answer briefly: the call reported for [O-][N+](=Nc1ccccc1)c1ccccc1 in this assay.
inactive

Answer briefly: the call reported for CC/C=C\C/C=C\C/C=C\C/C=C\C/C=C\C/C=C\CCC(=O)O in this assay.
inactive

Answer briefly: the call reported for Nc1ncnc2c1ncn2[C@H]1CC[C@@H](CO)O1 in this assay.
inactive

Answer briefly: the call reported for O=C(OCc1ccccc1)c1cccnc1 in this assay.
inactive

Answer briefly: the call reported for CC(/C=C/C=C(\C)C(=O)O[C@@H]1O[C@H](CO[C@@H]2O[C@H](CO)[C@@H](O)[C@H](O)[C@H]2O)[C@@H](O)[C@H](O)[C@H]1O)=C\C=C\C=C(C)\C=C\C=C(/C)C(=O)O[C@@H]1O[C@H](CO[C@@H]2O[C@H](CO)[C@@H](O)[C@H](O)[C@H]2O)[C@@H](O)[C@H](O)[C@H]1O in this assay.
inactive

Answer briefly: the call reported for S=C1SCN(Cc2ccccc2)CN1Cc1ccccc1 in this assay.
inactive

Answer briefly: the call reported for CC(C)(C)CC(C)(C)c1ccc(OCCO)cc1 in this assay.
inactive

Answer briefly: the call reported for CCOC(=O)[C@@H](N)CS in this assay.
inactive

Answer briefly: the call reported for CC(C)[C@H](N)C(=O)OCC(CO)OCn1cnc2c(=O)[nH]c(N)nc21 (stereo partly specified) in this assay.
inactive

Answer briefly: the call reported for C(=C\c1ccncc1)/c1ccccc1 in this assay.
inactive

Answer briefly: the call reported for Cc1ccccn1 in this assay.
inactive

Answer briefly: the call reported for CC1=CC(=C(c2ccc(N)cc2)c2ccc(N)cc2)C=CC1=N in this assay.
active
